The values you see were collected from patent US20210196796A1.

Target Entity: T1, orthogonal hCD122 receptor (hoRb), hCD122 with H133D and Y134F (human, UniProt P14784 27-550)
T1 sequence: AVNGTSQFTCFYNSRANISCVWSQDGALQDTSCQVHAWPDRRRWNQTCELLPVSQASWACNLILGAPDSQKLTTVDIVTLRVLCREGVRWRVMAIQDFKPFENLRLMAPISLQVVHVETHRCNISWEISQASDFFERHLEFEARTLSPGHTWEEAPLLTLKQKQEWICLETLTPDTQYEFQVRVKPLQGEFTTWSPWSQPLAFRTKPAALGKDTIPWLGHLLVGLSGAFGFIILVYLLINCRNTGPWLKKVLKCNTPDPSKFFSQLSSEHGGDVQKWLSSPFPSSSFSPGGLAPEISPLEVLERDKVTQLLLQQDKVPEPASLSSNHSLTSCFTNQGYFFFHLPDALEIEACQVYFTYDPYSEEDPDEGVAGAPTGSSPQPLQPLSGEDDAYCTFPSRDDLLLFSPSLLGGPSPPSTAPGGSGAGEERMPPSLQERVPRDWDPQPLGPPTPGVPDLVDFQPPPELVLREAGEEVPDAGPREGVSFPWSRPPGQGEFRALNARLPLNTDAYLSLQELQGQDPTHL
Protocol Description: cell-based or functional assay
Readout Type: 3F8 Ortho Proliferation Signal 1:2 (cts/min)

[
  {
    "Binder": "ΔQ13, SQVLKA (ligand) APTSSSTKKTQLLSQLLVLLKAILNGINNYKNPKLTRMLTFKFYMPKKATELKHLQCLEEELKPLEEVLNLAQSKNFHLRPRDLISNINVIVLELKGSETTFMCEYADETATIVEFLNRWITFCQSIISTLT",
    "Readout Type": "3F8 Ortho Proliferation Signal 1:2",
    "Numeric Result": 37600
  }
]

(a) T3N, SQVLKA (ligand) APNSSSTKKTQLQLSQLLVLLKAILNGINNYKNPKLTRMLTFKFYMPKKATELKHLQCLEEELKPLEEVLNLAQSKNFHLRPRDLISNINVIVLELKGSETTFMCEYADETATIVEFLNRWITFCQSIISTLT
(b) Δ88N, SQVLKA (ligand) APTSSSTKKTQLQLSQLLVLLKAILNGINNYKNPKLTRMLTFKFYMPKKATELKHLQCLEEELKPLEEVLNLAQSKNFHLRPRDLISINVIVLELKGSETTFMCEYADETATIVEFLNRWITFCQSIISTLT
Determine, for a and b , which has the greater value of 3F8 Ortho Proliferation Signal 1:2. Lab log: write the label of the selected item as the result.
a
(a: 34200 cts/min, b: 486 cts/min)
